Target Entity: T1, Human serum albumin (human, UniProt P02768 25-609)
T1 construct: Purchased protein used in solution; In the hydrothermal experiments it is heat-aggregated into an insoluble precipitate; also called HSA
Measurement Notes: Kd as classified from the fluorescence titration; told in Example 4 of the peptides of samples F and G
pKd: −log10 of the molar value. No end group written: not given here.
Endpoint Label: pKd

Requested read-out: pKd. Entry: LVAASQAALGL (also: TMR label, site not given here) [TMR-labeled HSA 599-609 fragment]
≤ 3.30
